For H. influenzae (HINF 30063), measured MIC is reported for the entries below.

CN(C)Cc1ccc(OCC(=O)N2CCN(c3ccc(N4C[C@H](CNC(=S)C5CC5)OC4=O)cc3F)CC2)cc1; 16 µg/mL
O=C(COc1ccc(CN2CCOCC2)cc1)N1CCN(c2ccc(N3C[C@H](CNC(=S)C4CC4)OC3=O)cc2F)CC1; 64 µg/mL
CCN(CC)Cc1ccc(OCC(=O)N2CCN(c3ccc(N4C[C@H](CNC(C)=O)OC4=O)cc3F)CC2)cc1; > 64 µg/mL
CCC(=S)NC[C@H]1CN(c2ccc(N3CCN(C(=O)COc4ccc(CN5CCN(C)CC5)cc4)CC3)c(F)c2)C(=O)O1; 32 µg/mL
CCC(=S)NC[C@H]1CN(c2ccc(N3CCN(C(=O)COc4ccc(CN(CC)CC)cc4)CC3)c(F)c2)C(=O)O1; 32 µg/mL
CCC(=S)NC[C@H]1CN(c2ccc(N3CCN(C(=O)COc4ccc(CN5CCOCC5)cc4)CC3)c(F)c2)C(=O)O1; 64 µg/mL
CCN(CC)Cc1ccc(OCC(=O)N2CCN(c3ccc(N4C[C@H](CNC(=S)C5CC5)OC4=O)cc3F)CC2)cc1; 32 µg/mL

Turning to the following compound.
Lab note: compound CC(=O)NC[C@H]1CN(c2ccc(N3CCN(C(=O)COc4ccc(CN5CCN(C)CC5)cc4)CC3)c(F)c2)C(=O)O1 tested on H. influenzae (HINF 30063); recorded MIC was 32 µg/mL

---

For S. aureus (SAUR 9213), measured log10 MIC is reported for the entries below.
# log10 transformed; quantity=MIC; unit=µg/mL

Below: 2 molecules and their reported log10 MIC.
CCN(CC)Cc1ccc(OCC(=O)N2CCN(c3ccc(N4C[C@H](CNC(C)=O)OC4=O)cc3F)CC2)cc1 [Compound 8]; 1.51
CCC(=S)NC[C@H]1CN(c2ccc(N3CCN(C(=O)COc4ccc(CN5CCN(C)CC5)cc4)CC3)c(F)c2)C(=O)O1 [Compound 22]; 0.90

Lab note: molecule CC(=O)NC[C@H]1CN(c2ccc(N3CCN(C(=O)COc4ccc(CN5CCN(C)CC5)cc4)CC3)c(F)c2)C(=O)O1 [Compound 24] tested on S. aureus (SAUR 9213); recorded log10 MIC was 0.60

Lab note: molecule CN1CCN(Cc2ccc(OCC(=O)N3CCN(c4ccc(N5C[C@H](CNC(=S)C6CC6)OC5=O)cc4F)CC3)cc2)CC1 [Compound 23] tested on S. aureus (SAUR 9213); recorded log10 MIC was 1.20

Lab note: molecule O=C(COc1ccc(CN2CCOCC2)cc1)N1CCN(c2ccc(N3C[C@H](CNC(=S)C4CC4)OC3=O)cc2F)CC1 [Compound 18] tested on S. aureus (SAUR 9213); recorded log10 MIC was 0.60

Lab note: molecule CC(=O)NC[C@H]1CN(c2ccc(N3CCN(C(=O)COc4ccc(CN5CCOCC5)cc4)CC3)c(F)c2)C(=O)O1 [Compound 19] tested on S. aureus (SAUR 9213); recorded log10 MIC was 1.20

Lab note: molecule CCC(=S)NC[C@H]1CN(c2ccc(N3CCN(C(=O)COc4ccc(CN5CCOCC5)cc4)CC3)c(F)c2)C(=O)O1 [Compound 17] tested on S. aureus (SAUR 9213); recorded log10 MIC was 0.90

Lab note: molecule CCN(CC)Cc1ccc(OCC(=O)N2CCN(c3ccc(N4C[C@H](CNC(=S)C5CC5)OC4=O)cc3F)CC2)cc1 [Compound 10] tested on S. aureus (SAUR 9213); recorded log10 MIC was 0.30

Lab note: molecule CN(C)Cc1ccc(OCC(=O)N2CCN(c3ccc(N4C[C@H](CNC(=S)C5CC5)OC4=O)cc3F)CC2)cc1 [Compound 2] tested on S. aureus (SAUR 9213); recorded log10 MIC was 0.30

Lab note: molecule CCC(=S)NC[C@H]1CN(c2ccc(N3CCN(C(=O)COc4ccc(CN(CC)CC)cc4)CC3)c(F)c2)C(=O)O1 [Compound 9] tested on S. aureus (SAUR 9213); recorded log10 MIC was 0.60

Lab note: molecule CCC(=S)NC[C@H]1CN(c2ccc(N3CCN(C(=O)COc4ccc(CN(C)C)cc4)CC3)c(F)c2)C(=O)O1 [Compound 13] tested on S. aureus (SAUR 9213); recorded log10 MIC was 0.90

Lab note: molecule CC(=O)NC[C@H]1CN(c2ccc(N3CCN(C(=O)COc4ccc(CN(C)C)cc4)CC3)c(F)c2)C(=O)O1 [Compound 14] tested on S. aureus (SAUR 9213); recorded log10 MIC was 1.20
